Test: Clearance in rat
Assay type: ADME, organism-based
Details: in vivo
REPORTED_PROPERTY: clearance (mL/min/kg)
Field: numeric (mL/min/kg). Do not append units.

GET /values?readout=clearance&item= CC(C)[C@@](O)(C(=O)N1CCC(C2CCN(c3ccc(C(=O)N(C)C)c(Cl)c3)CC2)CC1)C(F)(F)F
87

###

Biological target: Oxysterols receptor LXR-beta (Homo sapiens)
Sequence (whole entry): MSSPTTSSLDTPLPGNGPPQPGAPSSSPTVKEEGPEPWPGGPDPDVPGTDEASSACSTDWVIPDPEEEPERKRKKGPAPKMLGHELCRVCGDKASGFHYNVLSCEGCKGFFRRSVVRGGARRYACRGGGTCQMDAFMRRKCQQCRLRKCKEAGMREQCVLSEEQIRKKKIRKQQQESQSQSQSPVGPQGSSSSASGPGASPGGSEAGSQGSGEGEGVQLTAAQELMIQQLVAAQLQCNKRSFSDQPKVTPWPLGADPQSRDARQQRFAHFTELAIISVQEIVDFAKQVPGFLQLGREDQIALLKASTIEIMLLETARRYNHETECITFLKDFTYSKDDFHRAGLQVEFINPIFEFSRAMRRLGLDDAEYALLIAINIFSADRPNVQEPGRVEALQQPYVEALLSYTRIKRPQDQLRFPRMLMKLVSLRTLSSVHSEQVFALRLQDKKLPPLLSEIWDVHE
Assay: Agonist activity at LXRbeta (unknown origin) expressed in human H4 cells co-expressing ABCA1 promoter measured after 48 hrs by cell-based transactivation assay
Quick reference: Emax of the listed items.
Field: numeric (%). Do not append units.

Recorded results for 3 molecules are shown here.
| TEST_SMILES | REPORTED_PROPERTY | NUMBER |
| --- | --- | --- |
| CC(C)[C@](O)(C(=O)N1CCC(C2CCN(c3ccc(C(=O)N(C)C)c(Cl)c3)CC2)CC1)C(F)(F)F | Emax | 117 |
| CN(C)C(=O)c1ccc(-c2cnc(N3CCN(C(=O)OC(C)(C)C)CC3)c(C#N)c2)cc1Cl | Emax | 103 |
| CN(C)C(=O)c1ccc(-c2cnc(N3CCN(C(=O)[C@](O)(c4ccccc4)C(F)(F)F)CC3)c(C#N)c2)cc1Cl | Emax | 64 |

API: value(readout=Emax, system=Oxysterols receptor LXR-beta (Homo sapiens)) for record CN(C)C(=O)c1ccc(N2CCC(C3CCN(C(=O)[C@](O)(c4ccccc4)C(F)(F)F)CC3)CC2)cc1Cl
91

###

Target: Oxysterols receptor LXR-alpha (Homo sapiens)
Sequence (Q13133 whole entry): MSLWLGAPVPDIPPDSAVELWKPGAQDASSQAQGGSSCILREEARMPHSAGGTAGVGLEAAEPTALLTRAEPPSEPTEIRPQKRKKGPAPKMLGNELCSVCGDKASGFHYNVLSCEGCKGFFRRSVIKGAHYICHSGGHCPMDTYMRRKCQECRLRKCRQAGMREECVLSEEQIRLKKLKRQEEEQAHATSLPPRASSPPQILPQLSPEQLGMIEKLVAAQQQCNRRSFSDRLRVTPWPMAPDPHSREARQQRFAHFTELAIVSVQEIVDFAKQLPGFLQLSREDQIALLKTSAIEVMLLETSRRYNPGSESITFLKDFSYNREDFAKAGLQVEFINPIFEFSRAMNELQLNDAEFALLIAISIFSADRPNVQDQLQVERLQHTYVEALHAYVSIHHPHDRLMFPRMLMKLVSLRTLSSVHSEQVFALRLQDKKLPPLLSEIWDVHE
Assay: Agonist activity at LXRalpha (unknown origin) expressed in human HepG2 cells co-expressing ABCA1 promoter measured after 48 hrs by cell-based transactivation assay
Quick reference: EC50 of the listed items.
Field: numeric (nM). Do not append units.

Recorded results for 3 compounds are shown here.
| TEST_SMILES | UNIT_TEXT | EC50 |
| --- | --- | --- |
| CN(C)C(=O)c1ccc(-c2cnc(N3CCN(C(=O)OC(C)(C)C)CC3)c(C#N)c2)cc1Cl | nM | 280 |
| CN(C)C(=O)c1ccc(N2CCC(C3CCN(C(=O)[C@](O)(c4ccccc4)C(F)(F)F)CC3)CC2)cc1Cl | nM | 500 |
| CN(C)C(=O)c1ccc(-c2cnc(N3CCN(C(=O)[C@](O)(c4ccccc4)C(F)(F)F)CC3)c(C#N)c2)cc1Cl | nM | 45 |

Please look at the following compound next.
GET /values?readout=EC50&item= CC(C)[C@](O)(C(=O)N1CCC(C2CCN(c3ccc(C(=O)N(C)C)c(Cl)c3)CC2)CC1)C(F)(F)F
2000
